- Tested on: KM12
- Test Method Notes: Growth inhibition of human KM12 cells after 48 hrs by sulforhodamine B assay
- Format: functional
- Test Conditions: KM12, 48 h
Reported Metric: GI50 (nM)
Give the quantity in nM, number only.

Form field - read-out: GI50; system: KM12; submitted item: COc1c(F)ccc(C(=O)N2c3ccccc3Sc3ccccc32)c1F
4010

Form field - read-out: GI50; system: KM12; submitted item: O=C(c1ccc2c(c1)Sc1ccccc1N2)c1c[nH]c2ccccc12
365

Form field - read-out: GI50; system: KM12; submitted item: COc1cc2cc(C(=O)N3c4ccccc4Sc4ccccc43)[nH]c2cc1OC
620

Form field - read-out: GI50; system: KM12; submitted item: COc1ccc(C(=O)N2c3ccccc3Sc3ccccc32)cc1F
239

Form field - read-out: GI50; system: KM12; submitted item: CCOc1ccc(C(=O)N2c3ccccc3Sc3ccccc32)cc1Cl
426

Form field - read-out: GI50; system: KM12; submitted item: CCOC(=O)c1cc(C(=O)N2c3ccccc3Sc3ccccc32)n2c(C)cccc12
2940

Form field - read-out: GI50; system: KM12; submitted item: CN(C)Cc1cn(C(=O)N2c3ccccc3Sc3ccccc32)c2ccccc12
1890

Form field - read-out: GI50; system: KM12; submitted item: COc1ccc(C(=O)N2c3ccccc3Sc3ccccc32)cc1N
97
